System: SN12C renal
Procedure Text: NCI tumour cell line growth inhibition, 48 h
Readout Label: GI50

C[C@]12CC[C@@H]3c4ccc(O)cc4CC[C@H]3[C@@H]1CC[C@@H]2NS(=O)(=O)c1ccc2ccccc2c1: 1.94 µM
Cc1cc(S(N)(=O)=O)c(S/C(=N\Nc2ccc([N+](=O)[O-])cc2)c2ccc3ccccc3c2)cc1Cl: 18.6 µM
COc1ccc(-c2nc(-c3nc4ccc(C(F)(F)F)cc4[nH]3)c3ccccn23)cc1: > 100 µM
O=C(Nc1cccc(-n2cc(-c3ccncc3)c(-c3ccc(O)c(Cl)c3)n2)c1)c1ccc(Cl)c(Cl)c1: 23.1 µM

* * *

Tested on: MDA-MB-435
Procedure Text: NCI tumour cell line growth inhibition, 48 h
We begin with a simple list: items and their reported TGI.
Readout Label: TGI

Cc1cn2c(/C=N/N=C(N)N)c(-c3ccsc3)nc2s1: 24.6 µM
CCOC(=O)c1cn2c(ccc3sc4ccccc4c(=O)c32)n1: > 100 µM
S=C(c1c[nH]c2ccccc12)N1CCCCC1: > 100 µM
CCN(CC)CCNC(=O)c1nn(-c2ccc(Cl)cc2)c2c1CCc1cc(OC)ccc1-2: 23.6 µM
CC1(C)N=C(N)N=C(N)N1c1ccc(Cl)c(Cl)c1: > 100 µM
NC(=O)SCC(=O)Nc1ccc2ncccc2c1: > 100 µM
COc1ccc(/C=C2\CN(C)CC3C2=NN(c2ccccc2)C3c2ccc(OC)cc2)cc1 (centres undefined): > 100 µM
COc1cc(C(=O)OCCn2[nH]c(-c3ccc(Cl)cc3)nc2=S)cc(OC)c1OC: > 100 µM
COc1ccc(-c2cc(-c3ccccc3)nc3c2CC(=O)Nc2ccccc2-3)cc1OC: > 100 µM
COc1ccc2[nH]c(O)c(/C=c3/ccc4c(c3)N=C(c3ccc(F)cc3)N=4)c2c1: 40 µM
CNc1nc2c(C)ccc3[nH]c(N(C)C)nc3c-2n1: > 100 µM
CNC(=O)c1cc2c(Oc3ccc(NC(=S)NC(=O)Cc4ccccc4)cc3F)ccnc2cc1OC: > 100 µM
N#CCCN(CCC#N)c1ccc(C(N=Nc2ccc(Cl)cc2)=Nc2ccc(Cl)cc2)cc1: 88.3 µM
CCCCCSC1C2C(=O)C(Br)=CC13CCNc1c(O)c4c5c(c13)=[N+]2CCC=5C=N4 (centres undefined): 0.571 µM
CCCCN1C(=O)CS/C1=N/Nc1nc2c([nH]1)c(=O)n(C)c(=O)n2C: 40.7 µM
O=C(c1ccccc1)c1nn(-c2ccccc2)c2nc3nc(-c4ccccc4)cc(=O)n3nc12: 48.3 µM
Nc1[nH]c(=S)c2c(N)n[nH]c2c1C(=O)Nc1ccc(Cl)cc1: > 100 µM
CNCCCn1c2c(c3ccc(F)cc3c1=O)C(=O)c1cc(OC)cnc1-2: 1.81 µM
NC(CO)C(=O)NCC(=O)O (centres undefined): > 100 µM
CCCCCCCCCCCCCCCCOc1ccc(/C=C/C2=[N+](CCCl)CCO2)cc1: > 100 µM
O=c1cc(O)c2c(O)cc(O)cc2o1: > 100 µM
O=c1[nH]c(=O)n2n1C1C=CC2CC1: > 100 µM
Nc1ncnc2nn(C3OC(CO)C(O)C3O)nc12 (centres undefined): > 90 µM
CC/C=C\C[C@H](O)C/C=C1/C(=O)C=C[C@@H]1C/C=C\CCCC(=O)NC: 6.64 µM

This collection of values is drawn from PubChem BioAssay (NCI).
